# Test system: CHO
# METHOD SUMMARY: Selectivity index, ratio of Ki for human OX2 receptor expressed on CHO cell membrane to Ki for Ile408-Val variant human OX1 receptor expressed on CHO cell membrane
# Format: cell-based
MEASURED PARAMETER: Ratio Ki
Just the number, please, no unit after it.

Worked examples, 6 molecules total:
[[record]]
molecule = "O=C(c1ccccc1-n1nccn1)N1CCC(F)(F)C(Oc2ncc3ccccc3n2)C1 (stereo not given)"
measured_parameter = "Ratio Ki"
value = 113

[[record]]
molecule = "O=C(c1ccccc1-n1nccn1)N1CCC(F)(F)C(Oc2cnc3ccccc3n2)C1 (stereo not given)"
measured_parameter = "Ratio Ki"
value = 72

[[record]]
molecule = "O=C(c1cccc(-n2ccnn2)c1)N1CCC(F)(F)[C@@H](Oc2ccc3ccccc3n2)C1"
measured_parameter = "Ratio Ki"
value = 1230

[[record]]
molecule = "O=C(c1ccccc1-n1cccn1)N1CCC(F)(F)[C@@H](Oc2ccc3ccccc3n2)C1"
measured_parameter = "Ratio Ki"
value = 564

[[record]]
molecule = "O=C(c1ccccc1-n1nccn1)N1CCC(F)(F)C(Oc2ccccn2)C1 (stereo not given)"
measured_parameter = "Ratio Ki"
value = 0.26

[[record]]
molecule = "O=C(c1ccccc1-n1nccn1)N1CCC(F)(F)C(Oc2nc3ccccc3s2)C1 (stereo not given)"
measured_parameter = "Ratio Ki"
value = 96


Fill in: CHO Ratio Ki for O=C(c1ccccc1-n1nccn1)N1CCC(F)(F)C(Oc2ccc3ccccc3n2)C1 (racemic) = 292

Fill in: CHO Ratio Ki for O=C(c1ccccc1-n1nccn1)N1CCC[C@@H](Oc2ccc3ccccc3n2)C1 = 19

Fill in: CHO Ratio Ki for O=C(c1ccccc1-n1nccn1)N1CCC(F)(F)C(Oc2cc3ccccc3cn2)C1 (stereo not given) = 6.4

Fill in: CHO Ratio Ki for COc1ccc(F)c(C(=O)N2CCC(F)(F)[C@@H](Oc3ccc4ccccc4n3)C2)c1F = 1120

Fill in: CHO Ratio Ki for O=C(c1ccccc1-c1ncccn1)N1CCC(F)(F)[C@@H](Oc2ccc3ccccc3n2)C1 = 156
